Values were extracted from paper PMC9057948.

experiment: SRB cytotoxicity (cell viability) assay; assay type: cell-based, Human; conditions: human, Human Skin Fibroblast (HSF) cells, 100 μM, 72 h, n = 3, read-out: Viability % (Mean)
Please respond with reported viability at 72 h, 100 µM for every item in the list.

Below, 3 compounds whose answers are already recorded.
1) CN1CCCCC=CC2CC2(C(=O)NS(=O)(=O)C2CC2)NC(=O)C2CC(O)CC2C1=O (stereo not drawn)
90.9%
2) COc1ccc2ccc(-c3scc(C(C)C)[n+]3[O-])[n+]([O-])c2c1CO
92.7%
3) COc1ccc2ccc(-c3scc(C(C)C)[n+]3[O-])[n+]([O-])c2c1C
92.5%

Look at each compound and report its viability at 72 h, 100 µM.
1. COc1ccc2c(OC3C[C@H]4C(=O)OC(=O)[C@@H]4C3)cc(-c3nc(C(C)C)cs3)nc2c1C
2. COc1cccc2c1C(=O)c1c(O)c3c(c(O)c1C2=O)C[C@@](O)(C(=O)CO)C[C@@H]3O[C@H]1C[C@H](N)[C@H](O)[C@H](C)O1 [Doxorubicin, reference compound]
3. COc1ccc2c(OC3CC4C(=O)NC5CC5C=CCCCCN(C)C(=O)C4C3)cc(-c3nc(C(C)C)cs3)nc2c1C (stereo not drawn)

Result string:
["92.9%", "3.29%", "95.6%"]

###

Please respond with reported viability at 72 h, 0.1 µM for every item in the list.
test: SRB cytotoxicity (cell viability) assay; type: cell-based, Human; conditions: human, Human Skin Fibroblast (HSF) cells, 0.1 μM, 72 h, n = 3
Include the unit after the number when you answer.

Below, 4 compounds whose answers are already recorded.
1) COc1cccc2c1C(=O)c1c(O)c3c(c(O)c1C2=O)C[C@@](O)(C(=O)CO)C[C@@H]3O[C@H]1C[C@H](N)[C@H](O)[C@H](C)O1 [Doxorubicin, reference compound]
98.4%
2) COc1ccc2ccc(-c3scc(C(C)C)[n+]3[O-])[n+]([O-])c2c1C [DP 5]
96.8%
3) COc1ccc2c(OC3C[C@H]4C(=O)OC(=O)[C@@H]4C3)cc(-c3nc(C(C)C)cs3)nc2c1C [DP 1]
96.5%
4) COc1ccc2ccc(-c3scc(C(C)C)[n+]3[O-])[n+]([O-])c2c1CO [DP 4]
93.9%

Look at each compound and report its viability at 72 h, 0.1 µM.
1. CN1CCCCC=CC2CC2(C(=O)NS(=O)(=O)C2CC2)NC(=O)C2CC(O)CC2C1=O (stereo not drawn) [DP 3]
2. COc1ccc2c(OC3CC4C(=O)NC5CC5C=CCCCCN(C)C(=O)C4C3)cc(-c3nc(C(C)C)cs3)nc2c1C (stereo not drawn) [DP 2]

Result string:
["97.6%", "98.5%"]

###

assay: SRB cytotoxicity (cell viability) assay; format: cell-based, Human; conditions: human, Human Skin Fibroblast (HSF) cells, 10 μM, 72 h, n = 3
Output True for records whose viability at 72 h, 10 µM is lower than 90%, False for records at or above 90%.

1. COc1cccc2c1C(=O)c1c(O)c3c(c(O)c1C2=O)C[C@@](O)(C(=O)CO)C[C@@H]3O[C@H]1C[C@H](N)[C@H](O)[C@H](C)O1 [Doxorubicin, reference compound]
True
2. COc1ccc2c(OC3CC4C(=O)NC5CC5C=CCCCCN(C)C(=O)C4C3)cc(-c3nc(C(C)C)cs3)nc2c1C (stereo not drawn)
False
3. COc1ccc2c(OC3C[C@H]4C(=O)OC(=O)[C@@H]4C3)cc(-c3nc(C(C)C)cs3)nc2c1C
False

Now for a further compound.
Query string: Take the compound `COc1ccc2ccc(-c3scc(C(C)C)[n+]3[O-])[n+]([O-])c2c1C` and say whether its viability at 72 h, 10 µM is less than 90%.
Result string: False

###

assay: SRB cytotoxicity (cell viability) assay; assay type: cell-based, Human; conditions: human, Human Skin Fibroblast (HSF) cells, 1 μM, 72 h, n = 3
OBSERVABLE: viability at 72 h, 1 µM (%)
Answers are plain numbers, in %.

Look at each compound and report its viability at 72 h, 1 µM.
1. COc1ccc2c(OC3C[C@H]4C(=O)OC(=O)[C@@H]4C3)cc(-c3nc(C(C)C)cs3)nc2c1C
2. CN1CCCCC=CC2CC2(C(=O)NS(=O)(=O)C2CC2)NC(=O)C2CC(O)CC2C1=O (stereo not drawn)
3. COc1ccc2c(OC3CC4C(=O)NC5CC5C=CCCCCN(C)C(=O)C4C3)cc(-c3nc(C(C)C)cs3)nc2c1C (stereo not drawn)
4. COc1ccc2ccc(-c3scc(C(C)C)[n+]3[O-])[n+]([O-])c2c1C

Result string:
[95.6, 93.4, 97.4, 93.7]

Look at each compound and report its viability at 72 h, 1 µM.
1. COc1cccc2c1C(=O)c1c(O)c3c(c(O)c1C2=O)C[C@@](O)(C(=O)CO)C[C@@H]3O[C@H]1C[C@H](N)[C@H](O)[C@H](C)O1 [Doxorubicin, reference compound]
2. COc1ccc2ccc(-c3scc(C(C)C)[n+]3[O-])[n+]([O-])c2c1CO

Result string:
59.9
93.1
